biological target: interaction between PB1 and PA (Influenza A virus); test: biochemical; format: binding; conditions: calculated from inhibition at maximum obtainable concentration where solubility too low; read-out: IC50 [μM] (ELISA)
Would you mind telling me the reported IC50 of each entry?
Express your answer in µM, writing the number without its unit.

Query: Please look at this compound and report its IC50: O=[N+]([O-])c1ccc(SCc2ccccc2)c2nonc12
Response: 125

Query: Please look at this compound and report its IC50: O=[N+]([O-])c1ccc(Sc2cccc(Cl)c2)c2nonc12
Response: 60

Query: Please look at this compound and report its IC50: O=[N+]([O-])c1ccc(Sc2ccc(F)cc2)c2nonc12
Response: 125

Query: Please look at this compound and report its IC50: Nc1nc(Sc2ccc([N+](=O)[O-])c3nonc23)c2ncn(C3OC(CO)C(O)C3O)c2n1 (stereo not shown)
Response: 250

====

target: interaction between PB1 and PA (Influenza A virus); assay: biochemical; assay type: binding; conditions: highest concentration used, 1000 μM; read-out: Max. Inhibition (ELISA) at 1000 μM
Endpoint name: inhibition at 1000 µM (%)
Express your answer in %, writing the number without its unit.

Query: Please look at this compound and report its inhibition at 1000 µM: Cc1ccc(CSc2ccc([N+](=O)[O-])c3nonc23)cc1 [PKE077]
Response: 33

Query: Please look at this compound and report its inhibition at 1000 µM: CC(C)(C)c1csc(-c2ccc3nonc3c2)n1 [PKE140]
Response: 34

Query: Please look at this compound and report its inhibition at 1000 µM: Cc1ccc(Sc2ccc([N+](=O)[O-])c3nonc23)cc1 [PKE068]
Response: 46

Query: Please look at this compound and report its inhibition at 1000 µM: O=[N+]([O-])c1ccc(Sc2ccc(Cl)cc2Cl)c2nonc12 [PKE075]
Response: 35

Query: Please look at this compound and report its inhibition at 1000 µM: O=[N+]([O-])c1c(NCc2ccccc2)ccc2nonc12 [PKE190]
Response: 37

Query: Please look at this compound and report its inhibition at 1000 µM: COc1ccc(S(=O)(=O)OCCSc2ccc([N+](=O)[O-])c3nonc23)cc1 [PKE061]
Response: 37

====

target: interaction between PB1 and PA (Influenza A virus, UniProt P03433); assay: biochemical; assay type: binding; details: calculated from inhibition at maximum obtainable concentration where solubility too low; read-out: IC50 [μM] (ELISA)
Would you mind telling me the reported IC50 of each entry?
Express your answer in µM, writing the number without its unit.

Query: Report measured IC50 on interaction between PB1 and PA (Influenza A virus, UniProt P03433); entry: O=[N+]([O-])c1ccc(S(=O)(=O)Cc2ccccc2)c2nonc12
Response: 500

Query: Report measured IC50 on interaction between PB1 and PA (Influenza A virus, UniProt P03433); entry: O=[N+]([O-])c1ccc(Sc2ncnc3c2ncn3C2OC(CO)C(O)C2O)c2nonc12 (stereo not drawn)
Response: 200

Query: Report measured IC50 on interaction between PB1 and PA (Influenza A virus, UniProt P03433); entry: COc1ccc(C(=O)OCCSc2ccc([N+](=O)[O-])c3nonc23)cc1
Response: 100

====

biological target: interaction between PB1 and PA (Influenza A virus, UniProt P03433); test: biochemical; assay type: binding; conditions: prescreening
Endpoint name: Active in ELISA

>>> df
                                   compound  endpoint_result
0  COc1ccc(CSc2ccc([N+](=O)[O-])c3nonc23)cc1              Yes
1  Nc1nc(Sc2ccc([N+](=O)[O-])c3nonc23)c2[nH]cnc2n1               No
2             O=c1[nH]nc(Sc2ccccc2)c2nncn12               No
3  CCCCN1CCN(c2ccc([N+](=O)[O-])c3no[n+]([O-])c23)CC1               No
4      CCN(CC)c1cc(Cl)c2nonc2c1[N+](=O)[O-]               No
5   O=[N+]([O-])c1ccc(Sc2ccc(F)cc2)c2nonc12              Yes
6      O=[N+]([O-])c1ccc(Nc2ccccc2)c2nonc12               No
7  O=[N+]([O-])c1ccc(Sc2ncnc3c2ncn3C2OC(CO)C(O)C2O)c2nonc12 (stereo not drawn)              Yes

Consider the record given below.
Query: Please look at this compound and report its Active in ELISA: COc1ccc(C(=O)OCCSc2ccc([N+](=O)[O-])c3nonc23)cc1
Response: Yes

Source: patent US20120122896A1
